Tested on: pigweed
Test: Test B pre/postemergence pigweed
Assay type: in vivo, Amaranthus retroflexus
Conditions: Preemergence, Rate 62 g/ha; scale 0 to 10 (0 no effect, 10 complete control)
The entries below are paired with their reported Redroot pigweed plant response rating.
MEASURED METRIC: Redroot pigweed plant response rating

| COMPOUND | RESULT |
| --- | --- |
| CC(C)N(C(=O)n1oc(=O)n(C(C)(C)C)c1=O)c1ccccc1 | 0 |
| COCCOCn1c(=O)on(C(=O)N(c2ccccc2)C(C)C)c1=O | 0 |
| CC(C)N(C(=O)n1oc(=O)n(C(C)C)c1=O)c1ccc(F)cc1F | 10 |
| CC(C)N(C(=O)n1oc(=O)n(C(C)c2ccccc2)c1=O)c1ccc(Cl)cc1 (centres unmarked) | 0 |
| Cc1ccc(N(C(=O)n2oc(=O)n(C(C)C)c2=O)C(C)C)cc1 | 2 |

###

Tested on: velvetleaf
Test: Test B pre/postemergence velvetleaf
Assay type: in vivo, Abutilon theophrasti
Conditions: Preemergence, Rate 125 g/ha; scale 0 to 10, 0 is no effect, 10 is complete control
The entries below are paired with their reported Velvetleaf plant response rating.

| SMILES TEXT | Velvetleaf plant response rating |
| --- | --- |
| CC(C)C(=O)Cn1c(=O)on(C(=O)N(c2ccc(F)cc2F)C(C)C)c1=O | 0 |
| CCOCn1c(=O)on(C(=O)N(c2ccc(Cl)cc2)C(C)C)c1=O | 2 |
| CC(C)=CCn1c(=O)on(C(=O)N(c2ccc(F)cc2F)C(C)C)c1=O | 0 |
| CCCCn1c(=O)on(C(=O)N(c2ccc(Cl)cc2)C(C)C)c1=O | 2 |
| COCCOCn1c(=O)on(C(=O)N(c2ccc(F)cc2F)C(C)C)c1=O | 2 |

###

Tested on: surinam grass
Assay: Test B pre/postemergence surinam grass
Assay type: in vivo, Brachiaria decumbens
Conditions: Rate 500 g/ha, Preemergence; scale 0 to 10 (0 no effect, 10 complete control)

| COMPOUND | B. signalgrass plant response rating |
| --- | --- |
| COC1CCC(Cn2c(=O)on(C(=O)N(c3ccc(F)cc3)C(C)C)c2=O)=NO1 (centres unmarked) | 10 |
| CC(C)N(C(=O)n1oc(=O)n(CC2=NOCCO2)c1=O)c1ccc(F)cc1 | 7 |
| COc1ccc(N(C(=O)n2oc(=O)n(C(C)C)c2=O)C(C)C)cc1 | 4 |
| CC(C)N(C(=O)n1oc(=O)n(CC2=NOCCO2)c1=O)c1ccc(F)cc1F | 8 |
| CC(C)N(C(=O)n1oc(=O)n(C(C)C2=NOCC2)c1=O)c1ccc(Cl)cc1 (racemic) | 8 |

###

System: pigweed
Test: Test B pre/postemergence pigweed
Assay type: in vivo, Amaranthus retroflexus
Conditions: Preemergence, Rate 125 g/ha; scale 0 to 10, 0 is no effect, 10 is complete control

| SMILES TEXT | TARGET OR TEST SYSTEM | Redroot pigweed plant response rating |
| --- | --- | --- |
| Cc1noc(C)c1Cn1c(=O)on(C(=O)N(c2ccc(F)cc2F)C(C)C)c1=O | pigweed | 9 |
| CC(C)N(C(=O)n1oc(=O)n(CC2=CCCN(C)C2)c1=O)c1ccccc1 | pigweed | 0 |
| CCOCn1c(=O)on(C(=O)N(c2ccc(Cl)cc2)C(C)C)c1=O | pigweed | 0 |
| CCCCn1c(=O)on(C(=O)N(c2ccc(Cl)cc2)C(C)C)c1=O | pigweed | 4 |
| CC(C)N(C(=O)n1oc(=O)n(CC2=CCCCC2)c1=O)c1ccccc1 | pigweed | 0 |
| CCCCCCn1c(=O)on(C(=O)N(c2ccccc2)C(C)C)c1=O | pigweed | 0 |
| COCCOCn1c(=O)on(C(=O)N(c2ccc(F)cc2F)C(C)C)c1=O | pigweed | 10 |

Value source: patent US6737383B1
